- Tested on: 786-O
- experimentalProtocol: Euclidean distance of Cell Painting phenotypic profile (signed KS, 77 features) to DMSO centroid (dimensionless distance); 5 or 10 uM (library dependent); higher = stronger phenotypic change vs DMSO (phenoactivity)
- measurementSetup: 48 h
Where a name gives a salt, the structure may show the parent alone.
# Lookup of reported Euclidean distance keyed by entry
Respond using a number only.

Worked examples, 4 compounds total:
                                   compound  valuemeasured
0  CC/C=C\C/C=C\C/C=C\C/C=C\C/C=C\C/C=C\CCC(=O)O           1.08
1  N[C@@H]1CCCCN(c2c(F)cc3c(=O)c(C(=O)O)cn(C4CC4)c3c2Cl)C1 [Besifloxacin HCl]          0.849
2  O=C(NS(=O)(=O)c1ccc(Br)s1)c1ccc(Cl)cc1Cl           1.38
3  O=C(O)CCCC[C@@H]1SC[C@@H]2NC(=O)N[C@@H]21          0.776

Ask: Quick one: Euclidean distance for C[C@H](NCc1ccc(OCc2cccc(F)c2)cc1)C(N)=O [Safinamide Mesylate] ?
Reply: 0.672

----------
- System: A549
- experimentalProtocol: Euclidean distance of Cell Painting phenotypic profile (signed KS, 77 features) to DMSO centroid (dimensionless distance); 5 or 10 uM (library dependent); higher = stronger phenotypic change vs DMSO (phenoactivity)
- measurementSetup: 48 h
Where a name gives a salt, the structure may show the parent alone.
recordedMetric: Euclidean distance

Worked examples, 2 molecules total:
>>> df
                                   molecule      recordedmetric  valuemeasured
0  C=C1CCN([C@H](C)[C@](O)(Cn2cncn2)c2ccc(F)cc2F)CC1 [Efinaconazole]  Euclidean distance          0.567
1  CO/N=C(\C(=O)N[C@@H]1C(=O)N2C(C(=O)O)=CCS[C@H]12)c1csc(N)n1 [Ceftizoxime]  Euclidean distance           1.74

Please look at the following molecule next.
Ask: Quick one: Euclidean distance for CN(C)c1ccc2c(c1)Sc1cc(N(C)C)ccc1N2 [TRx0237 (LMTX) mesylate] ?
Reply: 3.35

----------
- System: A549
- experimentalProtocol: Euclidean distance of Cell Painting phenotypic profile (signed KS, 77 features) to DMSO centroid (dimensionless distance); 5 or 10 uM (library dependent); higher = stronger phenotypic change vs DMSO (phenoactivity)
- measurementSetup: 48 h
recordedMetric: Euclidean distance

                                   compound  valuemeasured
0  Clc1ccc2c(c1)CCc1cccnc1C2=C1CCNCC1 [Desloratadine]          0.811
1  COC(=O)C1=CO[C@@H](O[C@@H]2O[C@H](CO)[C@@H](O)[C@H](O)[C@H]2O)[C@@H]2[C@@H](C)[C@@H](O)C[C@H]12 [Loganin]          0.804
2  C#C[C@]1(O)CC[C@H]2[C@@H]3CCc4cc(OC)ccc4[C@H]3CC[C@@]21C [Mestranol]          0.814

Ask: Quick one: Euclidean distance for COc1ccc2[nH]c([S@@+]([O-])Cc3ncc(C)c(OC)c3C)nc2c1 [Esomeprazole sodium] ?
Reply: 0.792

Ask: Moving on to Nc1cccc2c1C(=O)N(C1CCC(=O)NC1=O)C2=O (configuration not stated) [Pomalidomide]
Reply: 0.804

Ask: Moving on to CC1=Nc2ccc(Cl)cc2S(=O)(=O)N1 [Diazoxide]
Reply: 0.782

Ask: Moving on to CC(O)Cn1cnc2c1c(=O)n(C)c(=O)n2C (configuration not stated) [Proxyphylline]
Reply: 0.998

Where do the numbers come from? From the supplement of paper PMC10127200.
